Taken from the RepoRT retention time repository (doi:10.1016/j.foodchem.2021.129757).

Assay: RP, Waters ACQUITY UPLC BEH Shield RP18, 150 × 2.1 mm, 1.7 µm, 40 °C, 0.4 mL/min, estimated dead time 0.83 min; A: water + 0.1% formic acid, pH 3; B: acetonitrile + 0.1% formic acid, pH 3; gradient (min/%B) 0/0 30/50 31/100 37/100 37.1/0
Settings: stereoisomer not certain
Param threshold (20 min) applies to LC retention time; output yes (1) when value >= threshold, no (0) when value < threshold.

Reference set, count: 3
- O=C(CCc1ccc(O)cc1)c1c(O)cc(O)cc1O: yes (1)
- O=C(O)C=Cc1ccccc1O: no (0)
- CCCOC(=O)c1cc(O)c(O)c(O)c1 [propyl gallate]: no (0)

Prompt: Decide: is the reported value of LC retention time for COc1ccc(-c2cc(=O)c3c(OC)c(OC)c(OC)c(OC)c3o2)cc1 equal to or greater than 20 min?
Completion: yes (1)

Prompt: Decide: is the reported value of LC retention time for O=c1c(-c2ccc(O)cc2)coc2cc(O)ccc12 equal to or greater than 20 min?
Completion: no (0)
